# test system: human LAG3 expressed on cells (human) (UniProt P18627)
# Sequence (P18627 23-525): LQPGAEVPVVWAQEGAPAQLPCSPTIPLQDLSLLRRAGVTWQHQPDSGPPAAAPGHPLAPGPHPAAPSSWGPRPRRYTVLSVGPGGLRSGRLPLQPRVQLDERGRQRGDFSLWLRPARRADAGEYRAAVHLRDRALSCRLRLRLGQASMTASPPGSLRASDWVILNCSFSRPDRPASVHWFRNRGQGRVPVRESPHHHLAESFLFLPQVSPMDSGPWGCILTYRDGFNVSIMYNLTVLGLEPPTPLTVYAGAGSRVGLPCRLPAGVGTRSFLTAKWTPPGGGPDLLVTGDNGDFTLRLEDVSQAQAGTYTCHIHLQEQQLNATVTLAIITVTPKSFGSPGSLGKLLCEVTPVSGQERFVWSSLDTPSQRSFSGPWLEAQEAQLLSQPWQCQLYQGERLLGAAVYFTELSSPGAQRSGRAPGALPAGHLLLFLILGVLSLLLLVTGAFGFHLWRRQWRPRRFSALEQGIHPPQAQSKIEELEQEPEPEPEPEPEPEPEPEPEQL
# test: cell-based or functional assay
property label: IL-2, % of BMS, at 0.027434842 ug/mL (%)
Provide only the numeric value, understood in %.

Supply IL-2, % of BMS, at 0.027434842 ug/mL value. Item: sdAb fusion 25-2015-1 (Fc fusion, not shown: a dimerising Fc or GST) QLQLVESGGGLVQAGGSLRLSCAASGSIESFSFMGWYRQAPGKQRELVAGFTGAASLSFSTYTDAVKGRFTISRDNAKNTVYLQMNSLKPEDTAVYFCNVDPWSQSWPGRYWGQGTQVTVSSGGGGSQLQLVESGGGLAQTGGSLRLSCAAAGFTFDDTATGWFRQAPGKNREGVACISSSDGRIHYIDSAKGRFTISKDNAKKTVYLQMDSLKPEDTAVYYCAAARKGSTDCQGAIWGSWGQGTQVIVSSEPKSCDKTHTCPPCPAPELLG
30.4

Supply IL-2, % of BMS, at 0.027434842 ug/mL value. Item: sdAb fusion 25-27-2 (Fc fusion, not shown: a dimerising Fc or GST) QLQLVESGGGLVQAGGSLRLSCAASGSIESFSFMGWYRQAPGKQRELVAGFTGAASLSFSTYTDAVKGRFTISRDNAKNTVYLQMNSLKPEDTAVYFCNVDPWSQSWPGRYWGQGTQVTVSSGGGGSGGGGSQVQLVESGGGLVQPGGSLRLSCAASGFTLDYYAIGWFRQAPGKEREGVSCIRSSDGSTYYADSVKGRFTISSDNTKNTVYLQMNSLKPEDTAVYYCATDRYSDCRGPYENWGQGTQVTVSSEPKSCDKTHTCPPCPAPELLG
11.1
